- Tgt: beta-catenin/TCF4 engagement (Homo sapiens, UniProt P35222)
- Construct: expressed in transfected cells; host or cells: HEK293
- Sequence (P35222 whole entry): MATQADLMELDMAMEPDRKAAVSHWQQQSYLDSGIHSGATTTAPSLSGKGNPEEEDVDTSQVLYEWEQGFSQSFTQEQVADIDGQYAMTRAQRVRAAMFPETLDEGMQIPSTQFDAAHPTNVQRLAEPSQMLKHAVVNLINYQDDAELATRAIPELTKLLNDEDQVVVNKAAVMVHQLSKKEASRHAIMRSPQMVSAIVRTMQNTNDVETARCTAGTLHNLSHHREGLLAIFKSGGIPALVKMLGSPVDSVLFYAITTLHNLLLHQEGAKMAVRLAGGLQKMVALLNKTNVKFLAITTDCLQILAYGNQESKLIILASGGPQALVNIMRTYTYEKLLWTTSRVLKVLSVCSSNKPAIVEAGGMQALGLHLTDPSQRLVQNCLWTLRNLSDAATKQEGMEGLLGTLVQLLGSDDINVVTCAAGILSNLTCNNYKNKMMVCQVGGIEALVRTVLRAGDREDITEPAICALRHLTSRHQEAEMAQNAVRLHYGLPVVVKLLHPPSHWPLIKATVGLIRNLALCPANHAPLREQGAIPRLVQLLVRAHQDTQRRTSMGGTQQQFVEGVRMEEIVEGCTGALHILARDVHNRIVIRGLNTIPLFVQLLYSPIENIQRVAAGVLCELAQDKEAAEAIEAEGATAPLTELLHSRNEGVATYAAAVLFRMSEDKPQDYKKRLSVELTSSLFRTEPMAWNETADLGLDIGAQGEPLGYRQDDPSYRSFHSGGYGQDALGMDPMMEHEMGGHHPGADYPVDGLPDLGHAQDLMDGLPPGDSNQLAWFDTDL
- Test details: Nano-BRET target engagement assay (B-cat-Halo & TCF4-Luc in HEK293 cells)
- Type: cell-based
- Condition set: read-out: NanoBRET Abs IC50
Test readout: IC50 (µM)
Express the result in µM but write the number alone.

Field IC50 (entry CC(=O)N1CCC[C@]12CC=CCCCC1(CCCC=CCCCOC(=O)N3CC[C@@](C(=O)N[C@@H](Cc4ccsc4)C(=O)N[C@@H](Cc4csc5ccccc45)C(=O)N[C@@H](CCC(N)=O)C(=O)N[C@@H](CCCCNC(=O)c4ccc(CN5CCN(C)CC5)cc4)C(N)=O)(C3)NC(=O)[C@H](CC(N)=O)NC(=O)[C@H](Cc3ccccc3)NC(=O)[C@H](C)NC(=O)[C@H](C)NC(=O)[C@H](CC(=O)O)NC(=O)[C@H](CC(=O)O)NC1=O)NC(=O)[C@H](CC(C)(C)C)NC(=O)[C@H](CC(=O)O)NC2=O (stereo partly shown) ) reads 26
